target: Human AMPK α2ß2γ1 (Homo sapiens, UniProt O43741+P54646); construct: The full length cDNAs of human AMPK ß2 (NM_005399.3) and human AMPK α2 (NM_006252.3); The full length cDNAs of human AMPK ß2 (NM_005399.3); 6xHis (N); made in house; host or cells: Escherichia coli BL21 CodonPlus (DE3)-RIL; assay: Test Example 2: evaluation of an activator for AMP-activated protein kinase (AMPK), LabChip mobility shift assay with CaMKK2-phosphorylated enzyme; type: biochemical; conditions: FL-Peptide 7 substrate, 25° C., 2 hours
Sequence (P54646 whole entry): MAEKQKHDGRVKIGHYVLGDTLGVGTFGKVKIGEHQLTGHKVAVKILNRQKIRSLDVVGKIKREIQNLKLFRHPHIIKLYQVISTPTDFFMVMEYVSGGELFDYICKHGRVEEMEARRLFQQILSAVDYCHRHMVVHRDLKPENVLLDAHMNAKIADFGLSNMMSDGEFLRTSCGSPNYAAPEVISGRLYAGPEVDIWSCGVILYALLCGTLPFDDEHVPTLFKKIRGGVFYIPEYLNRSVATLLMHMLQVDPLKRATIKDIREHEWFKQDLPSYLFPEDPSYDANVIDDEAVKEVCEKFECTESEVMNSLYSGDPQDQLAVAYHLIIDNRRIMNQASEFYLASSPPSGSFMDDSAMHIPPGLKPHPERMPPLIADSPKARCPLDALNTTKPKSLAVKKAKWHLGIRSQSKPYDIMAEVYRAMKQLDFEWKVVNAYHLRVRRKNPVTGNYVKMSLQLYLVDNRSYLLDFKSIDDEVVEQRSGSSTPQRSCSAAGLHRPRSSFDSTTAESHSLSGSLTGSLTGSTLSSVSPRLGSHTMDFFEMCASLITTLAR
Sequence (O43741 whole entry): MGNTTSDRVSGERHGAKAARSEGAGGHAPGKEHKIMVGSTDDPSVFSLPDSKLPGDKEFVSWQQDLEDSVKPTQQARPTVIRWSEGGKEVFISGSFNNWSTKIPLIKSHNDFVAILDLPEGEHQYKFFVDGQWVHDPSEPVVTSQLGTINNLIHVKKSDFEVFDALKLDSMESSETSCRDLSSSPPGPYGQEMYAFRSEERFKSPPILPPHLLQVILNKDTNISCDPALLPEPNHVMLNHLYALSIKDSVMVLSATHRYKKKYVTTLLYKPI
Sequence (P54619 whole entry partner): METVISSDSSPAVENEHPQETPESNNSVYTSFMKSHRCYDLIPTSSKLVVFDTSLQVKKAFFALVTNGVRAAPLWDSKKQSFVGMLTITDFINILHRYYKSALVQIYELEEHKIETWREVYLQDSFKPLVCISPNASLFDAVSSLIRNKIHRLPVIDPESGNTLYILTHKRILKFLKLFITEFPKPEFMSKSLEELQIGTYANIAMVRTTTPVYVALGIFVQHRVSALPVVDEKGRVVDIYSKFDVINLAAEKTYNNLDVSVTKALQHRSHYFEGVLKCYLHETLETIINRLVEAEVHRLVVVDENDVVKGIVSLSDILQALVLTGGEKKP
Could you please mark 1 (yes) for values of EC150 (compound concentration showing 150% relative to the control (100%)) below 4 nM and 0 (no) for values at or above it?

Worked examples, 8 compounds total:
>  <compound>
CN(C)c1ncc(-c2cc(F)c3c(c2)CC[C@@H]3Nc2nc3nc(O[C@@H]4CO[C@H]5[C@@H]4OC[C@H]5O)[nH]c3cc2Cl)cn1

>  <category_label>
0 (no)

$$$$
>  <compound>
O[C@@H]1CO[C@H]2[C@@H]1OC[C@H]2Oc1nc2nc(NC3CCc4cc(OCCOC5CCCC5)cc(F)c43)c(Cl)cc2[nH]1 (some centres unmarked)

>  <category_label>
0 (no)

$$$$
>  <compound>
O=S(=O)(NCCOc1cc(F)c2c(c1)CCC2Nc1nc2nc(O[C@@H]3CO[C@H]4[C@@H]3OC[C@H]4O)[nH]c2cc1Cl)C(F)F (some centres unmarked)

>  <category_label>
0 (no)

$$$$
>  <compound>
O[C@@H]1CO[C@H]2[C@@H]1OC[C@H]2Oc1nc2nc(NC3CCc4cc(NCC(F)(F)F)cnc43)c(Cl)cc2[nH]1 (some centres unmarked)

>  <category_label>
0 (no)

$$$$
>  <compound>
O[C@@H]1CO[C@H]2[C@@H]1OC[C@H]2Oc1nc2nc(NC3CCc4cc(OCCN5CCCC5)cc(F)c43)c(Cl)cc2[nH]1 (some centres unmarked)

>  <category_label>
1 (yes)

$$$$
>  <compound>
O[C@@H]1CO[C@H]2[C@@H]1OC[C@H]2Oc1nc2nc(NC3CCc4cc(OCCN5CCOCC5)cc(F)c43)c(Cl)cc2[nH]1 (some centres unmarked)

>  <category_label>
1 (yes)

$$$$
>  <compound>
COCn1cc(-c2cc(F)c3c(c2)CC[C@@H]3Nc2nc3[nH]c(O[C@@H]4CO[C@H]5[C@@H]4OC[C@H]5O)nc3cc2Cl)cn1

>  <category_label>
1 (yes)

$$$$
>  <compound>
O[C@@H]1CO[C@H]2[C@@H]1OC[C@H]2Oc1nc2nc(NC3CCc4cc(OC5CC6(COC6)C5)cc(F)c43)c(Cl)cc2[nH]1 (some centres unmarked)

>  <category_label>
0 (no)

$$$$

Query: Bench note: check whether N#Cc1cc(F)c2c(c1)CC[C@@H]2Nc1nc2nc(O[C@@H]3CO[C@H]4[C@@H]3OC[C@H]4O)[nH]c2cc1Cl shows EC150 (compound concentration showing 150% relative to the control (100%)) below 4 nM
Reply: 1 (yes)

Query: For COCCCc1cnc2c(c1)CCC2Nc1nc2nc(O[C@@H]3CO[C@H]4[C@@H]3OC[C@H]4O)[nH]c2cc1Cl (single isomer, unassigned) , is the recorded EC150 (compound concentration showing 150% relative to the control (100%)) below the cut-off of 4 nM?
Reply: 0 (no)

Query: Strictly below 4 nM: is that where EC150 (compound concentration showing 150% relative to the control (100%)) of O[C@@H]1CO[C@H]2[C@@H]1OC[C@H]2Oc1nc2nc(N[C@H]3CCc4cc(C5=CCOC5)cc(F)c43)c(Cl)cc2[nH]1 sits?
Reply: 1 (yes)

Query: I'd appreciate it if you could check whether O[C@@H]1CO[C@H]2[C@@H]1OC[C@H]2Oc1nc2nc(NC3CCc4cc(OCC(F)F)cc(F)c43)c(Cl)cc2[nH]1 (some centres unmarked) has EC150 (compound concentration showing 150% relative to the control (100%)) smaller than 4 nM.
Reply: 1 (yes)

Query: Quick check: EC150 (compound concentration showing 150% relative to the control (100%)) of Cn1ccc(-c2cc(F)c3c(c2)CC[C@@H]3Nc2nc3nc(O[C@@H]4CO[C@H]5[C@@H]4OC[C@H]5O)[nH]c3cc2Cl)n1 under 4 nM?
Reply: 0 (no)

Query: State whether 4 nM exceeds EC150 (compound concentration showing 150% relative to the control (100%)) recorded for O[C@@H]1CO[C@H]2[C@@H]1OC[C@H]2Oc1nc2nc(NC3CCc4cc(OCCOC5CCC5)cc(F)c43)c(Cl)cc2[nH]1 (some centres unmarked) .
Reply: 0 (no)

Query: Please indicate whether the reported EC150 (compound concentration showing 150% relative to the control (100%)) of O[C@@H]1CO[C@H]2[C@@H]1OC[C@H]2Oc1nc2nc(NC3CCc4cc(OCCF)cc(F)c43)c(Cl)cc2[nH]1 (some centres unmarked) is strictly below 4 nM.
Reply: 1 (yes)

Query: A record lists COC/C=C/c1cc(F)c2c(c1)CCC2Oc1nc2nc(O[C@@H]3CO[C@H]4[C@@H]3OC[C@H]4O)[nH]c2cc1Cl (single isomer, unassigned) . Is its EC150 (compound concentration showing 150% relative to the control (100%)) below 4 nM?
Reply: 1 (yes)

Query: Would you kindly verify if EC150 (compound concentration showing 150% relative to the control (100%)) of O=C1CCCN1CCOc1cc(F)c2c(c1)CCC2Nc1nc2nc(O[C@@H]3CO[C@H]4[C@@H]3OC[C@H]4O)[nH]c2cc1Cl (some centres unmarked) [Compound I-1-79] is strictly less than 4 nM?
Reply: 0 (no)
